These data points were gathered from ChEMBL document CHEMBL4513216.

- protocol description: Toxicity liver stage against HepG2, at 10uM
- Assay type: cell-based
- Design: test concentration 10 uM, cell line HepG2-A16-CD81EGFP
- experimental conditions: human, HepG2-A16-CD81EGFP cells; read-out: INHIBITION
measured property: cytotoxicity at 10 µM (%)
Express the result in % but write the number alone.

Consider the following illustrative entries.
1. Cc1nc(NCC(O)CN2CCCCCC2)c2c(C)noc2n1 (configuration not stated) : -5.78
2. Cn1c2c(ccc1=O)CC(NC(=O)c1ccsc1)CC2 (configuration not stated) : -1.87
3. c1cncc(N2CCCC3(CN(Cc4cccs4)CCO3)C2)c1 (configuration not stated) : 11.5

Recorded cytotoxicity at 10 µM (compound `CNc1ccnc(N2C[C@H]3CC[C@@H](C2)N(CCOC)C3=O)n1` ): 7.64

Recorded cytotoxicity at 10 µM (compound `O=C(NC1CCCC1)c1ccc(COCC(F)(F)F)o1` ): 10.6

Recorded cytotoxicity at 10 µM (compound `COC(=O)CCNC(=O)c1ccc(OCc2ccccc2)nc1` ): 4.93

Recorded cytotoxicity at 10 µM (compound `COC(=O)CN1CC2(CCNCC2)COc2ccccc2S1(=O)=O` ): -11.7

Recorded cytotoxicity at 10 µM (compound `CN(Cc1ccno1)C(=O)c1cccc(CC2CCNCC2)c1` ): -15.9

Recorded cytotoxicity at 10 µM (compound CC(C)Cc1noc(C2CCCN(C(=O)CCc3cnn(C)c3)C2)n1 (configuration not stated) ): 0.297

Recorded cytotoxicity at 10 µM (compound `COc1ncc(Cl)c(NCc2ccc(C(=O)N(C)C)cc2)n1` ): 9.95

Recorded cytotoxicity at 10 µM (compound `Nc1c(N2CCCCC2)ncnc1N1CCOCC1` ): 3.66

Recorded cytotoxicity at 10 µM (compound `O=C(CCc1ccsc1)NS(=O)(=O)Cc1ccon1` ): -12.6

* * *

- protocol description: Toxicity liver stage against HepG2, at 10uM
- Type: cell-based
- Design: test concentration 10 uM, cell line HepG2-A16-CD81EGFP
- experimental conditions: human, HepG2-A16-CD81EGFP cells; read-out: INHIBITION
cytotoxicity at 10 µM reference
Express the result in % but write the number alone.

Consider the following illustrative entries.
1. CCc1ccccc1CN1CCC(N2CCCC2=O)CC1 : -2.53
2. CC(CC(=O)N1CCCN(Cc2nccn2C)CC1)n1cccc1 (configuration not stated) : -12.5
3. CCn1nccc1CN(C)c1nc(N)nc2c1nc(C)n2C : -4.83

API: the following record is the query input.
Recorded cytotoxicity at 10 µM (compound `Cc1nc(NCc2nnc(C)n2C)c2c(CC(C)C)csc2n1` ): 9.56

* * *

- protocol description: Toxicity liver stage against HepG2, at 10uM
- Type: cell-based
- Parameters: test concentration 10 uM, cell line HepG2-A16-CD81EGFP
- experimental conditions: human, HepG2-A16-CD81EGFP cells; read-out: INHIBITION
measured property: cytotoxicity at 10 µM (%)
Express the result in % but write the number alone.

1) COCC(=O)NC[C@H]1OC[C@@H](NC2CCC(F)(F)CC2)[C@@H]1O : -3.32
2) Cc1nccn1-c1cc(CNC(=O)N2CCSCC2)ccn1 : -0.613
3) COc1ccc(NC(=O)c2ccc(-n3ncc(C#N)c3N)cc2)cn1 : -5.77
4) Cc1ccccc1CS(=O)(=O)NCCCN1CCCC1 : -7.49
5) Cc1cc(F)c(S(=O)(=O)Nc2ccn(CCCC#N)n2)cc1F : 19.3
6) Cn1cnc(CNC(=O)c2ccccc2-n2cc(CN)cn2)c1 : -16.9
7) CCOc1cccnc1C(=O)N1CC=C(c2ccc(O)cc2)CC1 : -1.66
8) c1cnc(NC[C@@H]2CCC[C@@H]3CN(Cc4cccnc4)C[C@@H]32)nc1 : -14.3

Recorded cytotoxicity at 10 µM (compound c1cnc(-c2cnc(N3CCSCC3)nc2C2CCCO2)cn1 (stereo unspecified) ): 4.4

Recorded cytotoxicity at 10 µM (compound `CN1CCN(CC2CC2)C(=O)C12CCN(c1nccs1)CC2` ): -6.01

Recorded cytotoxicity at 10 µM (compound `Cc1cccc(CC(=O)N2CCN(c3nccn3C)CC2)c1` ): 8.68

Recorded cytotoxicity at 10 µM (compound `O=C(c1ccoc1)N1CCC(NCc2cccnc2)CC1` ): 8.21

Recorded cytotoxicity at 10 µM (compound CC1CN(c2ccc(NC(=O)Cn3cccn3)cc2)CCO1 (stereo unspecified) ): 3.94

Recorded cytotoxicity at 10 µM (compound `Cc1ccccc1S(=O)(=O)N(C)[C@@H]1CC[C@@H](n2ccnc2C)[C@@H]1O` ): -1.07

Recorded cytotoxicity at 10 µM (compound `COC(=O)c1cccc(NC(=O)CCn2nc(-c3cccs3)oc2=O)c1` ): -8.13

* * *

- protocol description: Toxicity liver stage against HepG2, at 10uM
- Assay type: cell-based
- Design: test concentration 10 uM, cell line HepG2-A16-CD81EGFP
- experimental conditions: human, HepG2-A16-CD81EGFP cells; read-out: INHIBITION
Kindly return y if reported cytotoxicity at 10 µM is no lower than -10%; return n if it is lower.

Input line: Is reported cytotoxicity at 10 µM greater than or equal to -10% here: `O=C(CN1CCCC1)Nc1c2c(cc3c1CCC3)CCC2`
Output line: y

Input line: Is reported cytotoxicity at 10 µM greater than or equal to -10% here: CSC(C)C(=O)N1CCCN(Cc2nccn2C)CC1 (stereo unspecified)
Output line: n

Input line: Is reported cytotoxicity at 10 µM greater than or equal to -10% here: CC1COCCN1Cc1noc(C(C)(C)C)n1 (stereo unspecified)
Output line: y

Input line: Is reported cytotoxicity at 10 µM greater than or equal to -10% here: `CS(=O)(=O)NCC(=O)NCc1cccnc1-n1cnc2ccccc21`
Output line: y

Input line: Is reported cytotoxicity at 10 µM greater than or equal to -10% here: `COc1cc(N2CCC3(CCN(C(=O)c4cccnc4)CC3)C2)ncn1`
Output line: n

Input line: Is reported cytotoxicity at 10 µM greater than or equal to -10% here: O=C(NCC(F)(F)F)C1CSCN1S(=O)(=O)c1ccc(F)cc1Cl (stereo unspecified)
Output line: n

* * *

cytotoxicity at 10 µM reference
- protocol description: Toxicity liver stage against HepG2, at 10uM
- Format: cell-based
- Design: test concentration 10 uM, cell line HepG2-A16-CD81EGFP
- experimental conditions: human, HepG2-A16-CD81EGFP cells; read-out: INHIBITION
Could you write the number and then its unit?

1) CC(c1ccncc1)N(C)C(=O)NCCOc1ccc(C#N)cc1 (centres undefined) : -15.5%

Recorded cytotoxicity at 10 µM (molecule Cc1cc(C(=O)NCC(C)N2CCc3ccccc32)no1 (centres undefined) ): -8.8%

* * *

- protocol description: Toxicity liver stage against HepG2, at 10uM
- Format: cell-based
- Set-up: test concentration 10 uM, cell line HepG2-A16-CD81EGFP
- experimental conditions: human, HepG2-A16-CD81EGFP cells; read-out: INHIBITION
cytotoxicity at 10 µM reference
Express the result in % but write the number alone.

Recorded cytotoxicity at 10 µM (compound `O=C([C@@H]1COC[C@H]2CN(C3CCCC3)C[C@H]21)N1CCC(F)CC1` ): -103

Recorded cytotoxicity at 10 µM (compound CSC(C)(C)CNC(=O)NCC[S+]([O-])c1ccccc1 (centres undefined) ): 15.5

Recorded cytotoxicity at 10 µM (compound CCc1noc(CNc2cc(F)ccc2OCC2CCCO2)n1 (centres undefined) ): -3.27

Recorded cytotoxicity at 10 µM (compound Clc1snnc1CN1CCCC1Cn1cncn1 (centres undefined) ): -20.7

Recorded cytotoxicity at 10 µM (compound `CC(C)c1nccc([C@@H]2C[C@@H]3CCN(Cc4ccoc4)C[C@H]3O2)n1` ): -7.47

Recorded cytotoxicity at 10 µM (compound `O=C(CSc1ccc2c(c1)OCCO2)NS(=O)(=O)C1CCCCC1` ): -3.69

Recorded cytotoxicity at 10 µM (compound `Cc1ccsc1C(=O)NCc1cccnc1N(C)CCc1ccccn1` ): -0.678

Recorded cytotoxicity at 10 µM (compound `Cn1cc(C(=O)NC2CCCC2)c(-c2cccnc2)n1` ): 10.3

Recorded cytotoxicity at 10 µM (compound `COc1ccc(F)c(CN2CCC3(CCC(=O)N(CC(N)=O)C3)CC2)c1` ): 12

Recorded cytotoxicity at 10 µM (compound CCn1nc(C)c(CN2CCC(c3ccn[nH]3)C2)c1C (centres undefined) ): -0.125

Recorded cytotoxicity at 10 µM (compound `c1cnc(N2CCOC3(CCN(CC4CCCCC4)CC3)C2)nc1` ): 0.256

* * *

cytotoxicity at 10 µM reference
- protocol description: Toxicity liver stage against HepG2, at 10uM
- Type: cell-based
- Set-up: test concentration 10 uM, cell line HepG2-A16-CD81EGFP
- experimental conditions: human, HepG2-A16-CD81EGFP cells; read-out: INHIBITION
Express the result in % but write the number alone.

Consider the following illustrative entries.
1. CSc1ccc(CNC2(c3ccc(F)cc3)CCOCC2)cc1 : -4.51
2. O=C(c1ccc[nH]1)N1CC[C@@H](OCC2CC2)[C@@H]1Cc1cccnc1 : 0.878
3. CCN(C(c1cccnc1)c1cc(C)cc(C)c1)S(C)(=O)=O (stereo unspecified) : 2.88
4. CCOc1nnc(CN2CCC(c3nc4ccccc4[nH]3)CC2)s1 : -1.36
5. CCN(CC)C1CCN(C(=O)c2cc(CC(C)C)nn2CC)C1 (stereo unspecified) : -7.74
6. Cc1ccc(CNC(=O)N(C)Cc2cnn(C)c2)s1 : -11.2
7. COc1ccnc(N(C)Cc2ccccc2O)n1 : 2.29
8. CCc1ccc(NC(=O)N2C[C@@H]3C[C@H](C(=O)NC(C)C)[C@H](C2)O3)cc1 : -1.67
9. O=C(c1cccc(Cl)c1Cl)N1CCN(CC(O)Cn2cccn2)CC1 (stereo unspecified) : -14.3
10. c1cnc(Nc2cncc(C3CCCN(c4cnccn4)C3)n2)nc1 (stereo unspecified) : -8.74

API: the following record is the query input.
Recorded cytotoxicity at 10 µM (molecule O=C(c1ccc2c(c1)OCCCO2)N1CCCCC1C1OCCO1 (stereo unspecified) ): -0.158
